# Test Protocol: chemical genetic growth profiling, strain panel (AID 1159580);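 further: tested at 20 µM; growth read once vehicle control cultures reached saturation at 30 °C; 1 = growth at the plate median or of vehicle wells; lower values mean less growth of the strain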
# Cond: S. cerevisiae deletion strains, growth OD, locus YER002W, strain NOP16, hits give low values
About 2,000 (36%) of roughly 5,500 compounds were called active. Not shown: some 18% with an inconclusive outcome. Some of the results follow.
Label class 1 when normalized growth is strictly below 1; otherwise label class 0.

The following molecules have reported results that may help.
{"columns": ["Molecule", "Group"],
 "data": [
  ["c1ccc(-c2ccccn2)nc1", "class 1"],
  ["O=C(NC(Cc1ccccc1)C(=O)CCl)OCc1ccccc1 (stereo unspecified)", "class 1"],
  ["CC(C)CN(C)c1nc(N)c(C(=O)N=C(N)N)nc1Cl", "class 0"]
]}

// next entry
q: Does CCN(c1nc(N)c(C(=O)N=C(N)N)nc1Cl)C(C)C have normalized growth strictly under 1?
a: class 0

====

# Test Protocol: chemical genetic growth profiling, strain panel (AID 1159580)
# Cond: S. cerevisiae deletion strains, growth OD, locus YDR159W, strain sac3
Among all 5,500 compounds or so, about 2,000 (36%) were called active. Inconclusive results (about 18%) are left out. Rule as the data show it: active = normalized growth mostly below about 0.91 (no sharp cut-off); inconclusive = no clear call, values can overlap the other calls; inactive = mostly above about 0.92. This is one part of the list.
Your response should consist of one outcome taken from true (1) (active), false (0) (inactive)

The following compounds have reported results that may help.
{"columns": ["Compound", "Group"],
 "data": [
  ["CC(=O)Oc1ccc2c(c1OC(C)=O)OCC1(O)Cc3c(cc(OC(C)=O)c(OC(C)=O)c3OC(C)=O)C21 (stereo not given)", "false (0)"],
  ["CNC(=O)Oc1cccc2c1OC(C)(C)O2", "false (0)"],
  ["CC1(C)C2CC(=O)[C@]3(C)C(CC[C@@]4(C)[C@H](c5ccoc5)OC(=O)[C@H]5O[C@]543)[C@@]2(C)C(=O)C[C@H]1O (stereo not given in full)", "false (0)"],
  ["COC1=CC(=O)C(C(=O)c2ccccc2)=CC1=O", "false (0)"],
  ["Cc1cc(C2CCCCC2)n(O)c(=O)c1", "true (1)"],
  ["COC(=O)c1c(C)cc(O)cc1O", "false (0)"],
  ["CC1(C)C(=O)C=C[C@@]2(C)C1C=C[C@]1(C)C2CC[C@@]2(C)[C@H](c3ccoc3)OC(=O)C3OC321 (stereo not given in full)", "true (1)"],
  ["OCC(O)C(O)C(O)C(O)C(O)CO (stereo not given)", "false (0)"]
]}

q: Kindly provide the recorded test outcome for the following compound: CCC(=O)c1c(O)cc(O)cc1O
a: false (0)

q: Kindly provide the recorded test outcome for the following compound: CC(=O)O[C@]1(C(C)=O)CCC2C3C=C(Cl)C4=CC(=O)[C@@H]5C[C@@H]5[C@]4(C)C3CC[C@@]21C (stereo not given in full)
a: false (0)

====

# Test Protocol: chemical genetic growth profiling, strain panel (AID 1159580)
# Cond: S. cerevisiae deletion strains, growth OD, locus YBR023C, strain chs3, hits give low values
In all, about 5,500 compounds went through this assay and about 2,000 (36%) were called active. Roughly 18% stayed inconclusive and do not appear here. The list shows a part of the results.
Readout Kind: normalized growth
One number for each entry.

Reference set (3 entries):
{"columns": ["Molecule", "normalized growth"],
 "data": [
  ["C[C@@H]1O[C@@H](OC[C@H]2OC(Oc3c(-c4ccc(OCCO)c(OCCO)c4)oc4cc(OCCO)cc(O)c4c3=O)[C@H](O)[C@@H](O)[C@@H]2O)[C@H](O)[C@H](O)[C@H]1O (stereo partly drawn)", 0.956],
  ["COc1cc(OC)c2c(=O)c(O)c(-c3ccc(OC)c(OC)c3)oc2c1", 0.827],
  ["CCCCC1C(=O)N(c2ccccc2)N(c2ccc(O)cc2)C1=O (stereo not drawn)", 1]
]}

Look at each molecule and report its normalized growth.
1. COc1ccc(-c2oc3c(CC=C(C)C)c(O[C@@H]4O[C@H](CO)[C@@H](O)[C@H](O)[C@H]4O)cc(O)c3c(=O)c2O[C@@H]2O[C@@H](C)[C@H](O)[C@@H](O)[C@H]2O)cc1
2. COc1cc(OC)c2c(=O)c(OC)c(-c3ccc(OC)c(OC)c3)oc2c1
3. Cc1ccccc1OCC(O)CO (stereo not drawn)
4. COc1ccc(-c2cc(=O)c3c(O)cc(O[C@H]4O[C@H](CO[C@@H]5O[C@@H](C)[C@H](O)[C@@H](O)[C@H]5O)[C@@H](O)[C@H](O)[C@H]4O)cc3o2)cc1
5. NC(=O)NCCCC(N)C(=O)O (stereo not drawn)

a:
1: 1.02; 2: 1.01; 3: 0.964; 4: 1.01; 5: 1.01

====

I'd appreciate it if you could supply normalized growth values for the items below.
# Test Protocol: chemical genetic growth profiling, strain panel (AID 1159580)
# Cond: S. cerevisiae deletion strains, growth OD, locus YNL128W, strain TEP1, hits give low values
In all, about 5,500 compounds went through this assay and about 2,000 (36%) were called active. Roughly 18% stayed inconclusive and do not appear here. The list shows a part of the results.

Reference set (2 entries):
{"columns": ["Molecule", "Result"],
 "data": [
  ["O=C(O[C@@H]1Cc2c(O)cc(O)cc2O[C@@H]1c1cc(O)c(=O)c2c(O)c(O)cc([C@H]3Oc4cc(O)cc(O)c4C[C@H]3OC(=O)c3cc(O)c(O)c(O)c3)c2c1)c1cc(O)c(O)c(O)c1", "0.351 (active)"],
  ["O=C(OC1Cc2c(O)cc(O)cc2OC1c1cc(=O)c(O)c2c(O)c(O)cc(C3Oc4cc(O)cc(O)c4CC3O)c2c1)c1cc(O)c(O)c(O)c1 (stereo not drawn)", "0.145 (active)"]
]}

q: For the molecule CCN1C[C@]2(C)CC[C@H](OC)[C@]34C2[C@H](O)[C@]2(OCO[C@@]25C[C@H](OC)[C@H]2C[C@]3(O)C5[C@H]2O)C14 , give its measured normalized growth value.
a: 1 (inactive)

====

# Test Protocol: chemical genetic growth profiling, strain panel (AID 1159580);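 further: tested at 20 µM; growth read once vehicle control cultures reached saturation at 30 °C; 1 = growth at the plate median or of vehicle wells; lower values mean less growth of the strain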
# Cond: S. cerevisiae deletion strains, growth OD, locus YKR026C, strain gcn3, hits give low values
Screen size: about 5,500 compounds; about 2,000 (36%) were called active. Another 18% or so got no clear call; they are omitted. Some of the results follow.
Label rule met when normalized growth is strictly below 1; otherwise label rule not met.

The following molecules have reported results that may help.
{"columns": ["Smiles Record", "Group"],
 "data": [
  ["COc1cc(OC)c2ccc(=O)oc2c1", "rule met"],
  ["O=C1[O][Bi][O]c2ccccc21", "rule not met"],
  ["CCCCOc1cc(C(=O)NCCN(CC)CC)c2ccccc2n1", "rule met"]
]}

// next entry
q: Does COc1c2ccoc2cc2oc(=O)ccc12 have normalized growth strictly under 1?
a: rule met

====

# Test Protocol: chemical genetic growth profiling, strain panel (AID 1159580);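 further: tested at 20 µM; growth read once vehicle control cultures reached saturation at 30 °C; 1 = growth at the plate median or of vehicle wells; lower values mean less growth of the strain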
# Cond: S. cerevisiae deletion strains, growth OD, locus YKL203C, strain TOR2, hits give low values
Among all 5,500 compounds or so, about 2,000 (36%) were called active. Another 18% or so got no clear call; they are omitted. The list shows a part of the results.
I'd appreciate it if you could supply normalized growth values for the items below.

{"columns": ["Compound", "Result"],
 "data": [
  ["O=C(NNc1ccc(F)cc1F)c1sccc1Cl", "0.985 (inactive)"],
  ["OC(COc1ccc(F)cc1)(c1ccccc1)c1ccccc1", "1.07 (inactive)"],
  ["Cc1cc(Cl)ccc1NNC(=O)c1sccc1Br", "0.921 (inactive)"],
  ["COc1cc(Br)cc(C=Nc2ccc(Sc3ccccc3)nc2Sc2ccccc2)c1O", "0.91 (inactive)"]
]}

Look at each compound and report its normalized growth.
1. O=C1C(Cl)=C(Oc2cc(Cl)c(Cl)cc2Cl)C(=O)c2ccccc21
2. OC1(C(F)(F)F)CC(c2ccc3ccccc3c2)=NN1 (stereo unspecified)

a:
1: 0.13 (active); 2: 0.13 (active)

====

# Test Protocol: chemical genetic growth profiling, strain panel (AID 1159580);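 further: tested at 20 µM; growth read once vehicle control cultures reached saturation at 30 °C; 1 = growth at the plate median or of vehicle wells; lower values mean less growth of the strain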
# Cond: S. cerevisiae deletion strains, growth OD, locus YNL128W, strain TEP1
The campaign covered roughly 5,500 compounds. About 2,000 (36%) were called active. Inconclusive results (about 18%) are left out. Cut-off read from the data, not from the text of the source: active = normalized growth mostly below about 0.91 (no sharp cut-off); inconclusive = no clear call, values can overlap the other calls; inactive = mostly above about 0.92. Some of the results follow.
Your response should consist of one outcome taken from t (active), f (inactive)

The following molecules have reported results that may help.
{"columns": ["Molecule", "Group"],
 "data": [
  ["Cc1cc(C)c(/C=C2\\C(=O)Nc3ccccc32)[nH]1", "f"],
  ["CNCC(O)c1ccc(O)cc1 (centres undefined)", "f"],
  ["CC12CCC3c4ccc(OCc5ccccc5)cc4CCC3C1C[C@@H](O)[C@@H]2O (some centres undefined)", "t"],
  ["CC(C)(C)NCC(O)c1cc(Cl)c(N)c(Cl)c1 (centres undefined)", "f"]
]}

q: Kindly provide the recorded test outcome for the following molecule: C[C@]12CCC3c4ccc(OS(=O)(=O)O)cc4CCC3C1CC[C@H]2O (some centres undefined)
a: f

q: Kindly provide the recorded test outcome for the following molecule: CN1C(C)(C)CCCC1(C)C
a: f

q: Kindly provide the recorded test outcome for the following molecule: O=S(=O)(c1cccc2c(Cl)cccc12)N1CCCNCC1
a: f

q: Kindly provide the recorded test outcome for the following molecule: O=C1NC(=O)/C(=C/c2ccc(OS(=O)(=O)c3ccc(Cl)cc3)cc2)N1
a: f

q: Kindly provide the recorded test outcome for the following molecule: CCCCCCC(C)OC(=O)COc1ccc(Cl)cc1Cl (centres undefined)
a: f
